Provide the reported inhibition of each item.
Tested system: Testis-specific serine/threonine-protein kinase 2 (Homo sapiens);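 further: each value is the mean percent inhibition of TSSK2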
Test parameters: at 1 µM
Please state the number and follow it with the unit.

Ask: Query (compound): COc1cc(Nc2ncc(-c3ccccc3)o2)cc(OC)c1OC ; field requested: inhibition
Result: -1.3%

Ask: State the recorded inhibition for this entry: CN1CCN(CCCNc2nc3ccc(Oc4ccc(NC(=O)Nc5cc(C(F)(F)F)ccc5F)cc4)cc3[nH]2)CC1
Result: -1.46%

Ask: Dear colleague, I am looking for the recorded inhibition of the following compound: Fc1ccc(-c2c(-c3ccncc3)nc3n2CCS3)cc1
Result: 2.38%

Ask: // inhibition lookup, key: c1ccc(Oc2ccc(Nc3ncc(-c4ccccc4)o3)cc2)cc1
Result: 0.74%

Ask: Entry under review: C#Cc1cccc(Nc2ncnc3ccc(OCCCCNCCS(C)(=O)=O)cc23)c1 . Reported inhibition?
Result: 2.71%

Ask: inhibition lookup needed for COc1cc(Nc2ncc3c(C)nc(-c4cccc(Oc5ccccc5)c4)n3n2)cc(OC)c1OC , thanks.
Result: -1.11%

Ask: // inhibition lookup, key: CCc1ccc(Oc2nccc(-c3c(-c4ccc(F)cc4)ncn3C3CCNCC3)n2)cc1
Result: 2.6%

Ask: Fill in: inhibition of CS(=O)(=O)CCNCc1ccc(-c2ccc3ncnc(Nc4ccc(OCc5ccccc5)c(Br)c4)c3c2)o1 is ___
Result: 1%

Ask: Would you kindly share the measured inhibition for COc1cc2ncn(-c3cc(OCc4ccccc4C(F)(F)F)c(C(C)=O)s3)c2cc1OC ?
Result: 1.53%

Ask: I have this compound here, CCN(CC)Cc1ccc(Nc2nccc(-c3cnn4ncccc34)n2)cc1 , and I need its recorded inhibition.
Result: 2.16%

Ask: inhibition lookup needed for COc1cc2ncn(-c3cc(OCc4cccs4)c(C(N)=O)s3)c2cc1OC , thanks.
Result: 7.11%

Ask: Which inhibition value belongs to CN(C)CCCNc1nccc(-c2c(-c3ccc(F)cc3)nn3cc(C(F)(F)F)ccc23)n1 ?
Result: -2.11%

Ask: Find the recorded inhibition belonging to NCc1ccc(-n2c(-c3nonc3N)nc3cnccc32)cc1 and report it.
Result: 3.08%

Ask: Would you kindly share the measured inhibition for Fc1ccc(-c2ncn(C3CCNCC3)c2-c2ccnc(Oc3ccc(F)c(F)c3)n2)cc1 ?
Result: 1.42%

Ask: GET /values?readout=inhibition&item= CCS(=O)(=O)c1ccc(OC)c(Nc2ncc(-c3ccccc3Cl)o2)c1
Result: 0.12%

Ask: Look up inhibition for this compound: C[C@@H](Oc1cc(-n2cnc3ccc(OC4CCN(C)CC4)cc32)sc1C(N)=O)c1ccccc1Cl
Result: 1.72%

Ask: // query inhibition value for entry C[C@@H](Oc1cc(-n2cnc3ccc(OCC4CCN(C)CC4)cc32)sc1C(N)=O)c1ccccc1Cl
Result: 3.8%

Ask: Recorded inhibition of NS(=O)(=O)c1ccc(N/N=C2\C(=O)Nc3ccc(C(=O)NCCCn4ccnc4)cc32)cc1 , please.
Result: 6.71%

Ask: Fill blank: measured inhibition of the compound Cc1ccc(C(=O)NC2CCC2)cc1-c1ccc(C(=O)NCC2CC2)cc1 is ____.
Result: -0.03%

Ask: // inhibition lookup, key: Fc1ccc(-c2nc3n(c2-c2ccncc2)CCS3)cc1
Result: 0.48%

Ask: Given NC(=O)c1cc(-c2ccc(F)cc2)cc(-c2ccncc2)c1N , state its recorded inhibition.
Result: 4.29%

----------
Tested system: Macrophage-stimulating protein receptor (Homo sapiens);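 further: reported values are the mean percent inhibition of RON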
Test parameters: at 0.1 µM
Reported metric: inhibition (%)
Write the number in % without appending the unit.

Ask: Please report the recorded inhibition for COc1cc(C)c(N(C)C(=O)CN(C)C)cc1Nc1nc(Nc2cccc(F)c2C(N)=O)c2cc[nH]c2n1 .
Result: 5.06

Ask: Look up inhibition: CN(C)CCCNc1nccc(-c2c(-c3ccc(F)cc3)nn3cc(C(F)(F)F)ccc23)n1
Result: 3.96

Ask: // lookup inhibition for COc1ccc2cc(-c3c(-c4ccncc4)nc(-c4ccc([S+](C)[O-])cc4C)n3C)ccc2c1 (stereo not drawn)
Result: 3.56

----------
Tested system: Ribosomal protein S6 kinase alpha-1 (Homo sapiens) (UniProt Q15418);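 further: mean inhibition of RSK1, reported in the GSK PKIS screen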
Sequence (Q15418 whole entry): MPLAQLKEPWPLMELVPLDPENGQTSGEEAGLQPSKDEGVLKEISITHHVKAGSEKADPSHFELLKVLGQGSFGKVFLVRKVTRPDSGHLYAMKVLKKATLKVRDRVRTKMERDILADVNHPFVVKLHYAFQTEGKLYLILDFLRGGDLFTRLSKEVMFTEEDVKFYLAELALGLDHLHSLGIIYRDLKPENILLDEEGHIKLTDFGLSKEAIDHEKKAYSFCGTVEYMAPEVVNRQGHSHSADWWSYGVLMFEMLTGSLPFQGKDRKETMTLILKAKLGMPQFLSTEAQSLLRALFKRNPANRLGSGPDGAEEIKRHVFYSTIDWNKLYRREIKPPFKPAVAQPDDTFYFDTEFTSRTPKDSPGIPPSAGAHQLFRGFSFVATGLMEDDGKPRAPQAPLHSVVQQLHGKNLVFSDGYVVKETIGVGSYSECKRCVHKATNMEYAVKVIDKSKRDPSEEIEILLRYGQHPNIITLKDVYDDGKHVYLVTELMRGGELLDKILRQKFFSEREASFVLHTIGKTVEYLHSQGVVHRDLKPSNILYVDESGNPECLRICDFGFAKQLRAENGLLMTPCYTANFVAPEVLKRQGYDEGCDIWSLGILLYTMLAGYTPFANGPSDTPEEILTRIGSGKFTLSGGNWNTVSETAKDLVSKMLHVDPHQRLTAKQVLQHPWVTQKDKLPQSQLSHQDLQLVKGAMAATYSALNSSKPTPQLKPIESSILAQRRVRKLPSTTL
Test parameters: at 1 µM
Reported metric: inhibition (%)
Write down the numeric answer in % and omit the unit.

Ask: State the recorded inhibition for this entry: O=C1Nc2ccccc2/C1=C/Nc1ccc(-n2cncn2)cc1
Result: 10.9

Ask: May I ask what inhibition has been recorded for O=C1NC(=O)C(c2cccc(Cl)c2)=C1Nc1ccc(Cl)c(C(=O)O)c1 ?
Result: 2.92

Ask: Look at this compound and give its reported inhibition. COc1ccc2cc(-c3c(-c4ccncc4)nc(-c4ccc(S(C)(=O)=O)cc4C)n3C)ccc2c1
Result: 9.72

Ask: Item Fc1ccc(-c2ncn(CCCN3CCOCC3)c2-c2ccncc2)cc1 has what recorded inhibition?
Result: -3.25

Ask: // query inhibition value for entry COc1cc2ncn(-c3cc(OCc4cccs4)c(C(N)=O)s3)c2cc1OC
Result: 12.6

Ask: Given the compound CS(=O)(=O)CCNCc1cc(-c2cc3c(Nc4ccc(OCc5cccc(F)c5)c(Cl)c4)ncnc3s2)cs1 , what is its reported inhibition?
Result: 1.94

Ask: Using the record for C[C@@H](Oc1cc(-n2cnc3ccc(OC4CCN(C)CC4)cc32)sc1C(N)=O)c1ccccc1Cl , report its inhibition.
Result: 12.4

Ask: Entry Cc1ccc(NC(=O)c2ccoc2)cc1-c1ccc(C(=O)NCC2CC2)cc1 has what inhibition?
Result: 0.4

Ask: Returns the measured inhibition for the input compound. Input: CN(C)CCCNc1nccc(-c2c(-c3ccc(F)cc3)nn3cc(C(F)(F)F)ccc23)n1
Result: 4.02

Ask: Value lookup for inhibition; key = COc1cc(Nc2ncc3c(C)nc(-c4cccc(C(F)(F)F)c4)n3n2)cc(OC)c1OC
Result: 26.7

----------
For each of the molecules below, state its inhibition.
Tested system: SRSF protein kinase 3 (Homo sapiens) (UniProt Q9UPE1);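 further: mean of replicate inhibition values against MSSK1 kinase, profiled within the GSK PKIS kinase inhibitor set screen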
Sequence (Q9UPE1 whole entry): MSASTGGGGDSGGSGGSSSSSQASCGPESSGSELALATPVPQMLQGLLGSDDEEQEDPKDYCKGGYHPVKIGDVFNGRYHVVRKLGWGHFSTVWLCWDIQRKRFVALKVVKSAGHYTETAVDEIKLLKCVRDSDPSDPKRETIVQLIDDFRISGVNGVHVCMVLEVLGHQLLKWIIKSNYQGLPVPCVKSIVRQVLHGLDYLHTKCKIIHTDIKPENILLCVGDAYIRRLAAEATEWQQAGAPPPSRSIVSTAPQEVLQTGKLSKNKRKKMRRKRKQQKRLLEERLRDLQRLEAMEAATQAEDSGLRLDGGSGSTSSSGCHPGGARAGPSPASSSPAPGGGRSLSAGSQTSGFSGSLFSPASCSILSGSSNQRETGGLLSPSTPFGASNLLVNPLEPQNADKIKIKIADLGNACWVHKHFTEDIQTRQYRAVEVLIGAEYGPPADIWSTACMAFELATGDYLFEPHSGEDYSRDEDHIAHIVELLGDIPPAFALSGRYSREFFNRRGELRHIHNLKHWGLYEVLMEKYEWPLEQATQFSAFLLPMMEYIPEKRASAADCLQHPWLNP
Test parameters: at 0.1 µM
Reply with just the number (in %).

Ask: Param item = C#Cc1cccc(Nc2ncnc3ccc(OCCCCNCCS(C)(=O)=O)cc23)c1 ; retrieve measured inhibition.
Result: -1.8

Ask: Which inhibition value is on record for COc1cc(Nc2ncc3c(C)nc(-c4cccc(C(F)(F)F)c4)n3n2)cc(OC)c1OC ?
Result: -0.69

Ask: Need inhibition of O=C(Nc1n[nH]c2nc(-c3ccco3)ccc12)C1CC1 , thanks.
Result: 0.39

Ask: State the recorded inhibition for this entry: c1ccc(-c2n[nH]cc2-c2ccnc(-c3ccc(OCCN4CCOCC4)cc3)c2)nc1
Result: 2.38

Ask: May I ask what inhibition has been recorded for CN(C)CCCNc1nccc(-c2c(-c3ccc(F)cc3)nn3cc(C(F)(F)F)ccc23)n1 ?
Result: 2.1

Ask: Give its inhibition value. Item: O=C(Nc1n[nH]c2cc(-c3ccccc3)ccc12)C1CC1
Result: -0.47

Ask: Quick one: inhibition for NS(=O)(=O)c1ccc(N/N=C2\C(=O)Nc3ccc(C(=O)NCCCn4ccnc4)cc32)cc1 ?
Result: -1.4

Ask: Consider the molecule COc1cc2ncn(-c3cc(OCc4cccs4)c(C(N)=O)s3)c2cc1OC and give its measured inhibition.
Result: 0.87

Ask: Given C/C(Nc1ccc(S(N)(=O)=O)cc1)=C1/C(=O)Nc2ccccc21 , state its recorded inhibition.
Result: -1.51

Ask: # inhibition lookup, item FC(F)(F)c1cccc(Nc2nccc(-c3cnn4nc(-c5ccccc5)ccc34)n2)c1
Result: -2.14

Ask: Given COc1ccc(-c2ccc3c(NC(=O)C4CC4)n[nH]c3n2)cc1 , state its recorded inhibition.
Result: -1.22

Ask: Given the entry COc1cc(Nc2ncc(-c3ccccc3)o2)cc(OC)c1OC , report its measured inhibition.
Result: -0.22

Ask: Give its inhibition value. Item: Cc1ccc(NC(=O)c2ccoc2)cc1-c1ccc(C(=O)NCC2CC2)cc1
Result: -2.54

Ask: So what's the measured inhibition for this one? CCc1nccc2c1nc(-c1nonc1N)n2CC
Result: -1.38

Ask: Please report the recorded inhibition for CNC(=O)c1cncc(/C=C/c2c(C)cccc2C)c1 .
Result: -0.82

Ask: For COc1cc(N2CCN(C(C)C)CC2)ccc1Nc1nc(Nc2ccc(F)cc2C(=O)NC[C@@H](O)CO)c2cc[nH]c2n1 , what is its reported inhibition?
Result: -4.86

Ask: Query (molecule): NC(=O)c1cc(-c2ccncc2)cc(-c2ccccc2)c1N ; field requested: inhibition
Result: -0.96

Ask: Query: inhibition; subject: CCc1cccc(CC)c1/C=C/c1cncc(C(=O)NC)c1
Result: 1.81

Ask: // query inhibition value for entry NC(=O)Cc1ccccc1Oc1nccc(-c2c(-c3ccc(F)cc3)ncn2C2CCNCC2)n1
Result: -0.6

Ask: Which inhibition is reported for this molecule? O=C1Nc2ccccc2/C1=C/Nc1ccc(-n2cncn2)cc1
Result: -3.04

Ask: Give the measured inhibition of COC(=O)Nc1nc2ccc(Sc3ccc(NC(=O)Nc4cc(C(F)(F)F)ccc4F)cc3)cc2[nH]1 .
Result: 0.07

Reference source: ChEMBL document CHEMBL1961873
